- tested_on: Prostaglandin G/H synthase 1 (Ovis aries, UniProt P05979)
- Sequence (P05979 whole entry): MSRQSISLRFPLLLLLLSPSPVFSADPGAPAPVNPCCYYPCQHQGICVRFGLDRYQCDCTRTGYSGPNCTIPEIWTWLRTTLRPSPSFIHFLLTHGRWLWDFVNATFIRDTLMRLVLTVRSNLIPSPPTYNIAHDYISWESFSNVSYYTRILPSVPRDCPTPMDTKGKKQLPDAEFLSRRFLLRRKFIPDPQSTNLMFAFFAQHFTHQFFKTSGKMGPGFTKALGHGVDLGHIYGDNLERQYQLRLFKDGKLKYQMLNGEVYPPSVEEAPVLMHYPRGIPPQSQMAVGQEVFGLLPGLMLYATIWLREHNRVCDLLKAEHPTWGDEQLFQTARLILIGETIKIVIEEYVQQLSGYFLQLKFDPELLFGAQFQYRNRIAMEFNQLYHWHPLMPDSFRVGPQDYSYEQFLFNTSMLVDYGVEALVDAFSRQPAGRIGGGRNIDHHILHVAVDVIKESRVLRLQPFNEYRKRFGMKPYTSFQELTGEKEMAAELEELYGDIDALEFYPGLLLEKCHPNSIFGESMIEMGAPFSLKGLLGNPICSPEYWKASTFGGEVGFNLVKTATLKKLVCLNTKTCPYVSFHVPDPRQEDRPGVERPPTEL
parameter_measured: IC50 (µM)

I. CS(=O)(=O)c1ccc(C2=NN(c3ccc(S(N)(=O)=O)cc3)C(c3ccc(F)cc3)C2)cc1 (configuration not stated)
II. CS(=O)(=O)c1ccc(C2=NN(c3ccc(C(=O)O)cc3)C(c3ccccc3)C2)cc1 (configuration not stated)
*Q* Identify the entry with the smaller IC50: I or II . I would appreciate it if you answered with the label of your choice.
*A* II
(II: 4.9 µM, I: 9.7 µM)

###

- experiment_notes: Selectivity index, ratio of IC50 for ovine COX-1 to IC50 for human recombinant COX-2
parameter_measured: Ratio IC50

Take a look at these entries with their results.
> print(dat)
                                   compound  value
1  COc1ccc(C2CC(c3ccc(S(C)(=O)=O)cc3)=NN2c2ccc(C(=O)O)cc2)cc1OC (stereo unspecified)   2.61
2  COc1cc(C2CC(c3ccc(S(C)(=O)=O)cc3)=NN2c2ccc(C(=O)O)cc2)cc(OC)c1OC (stereo unspecified)   2.51
3  COc1ccc(C2CC(c3ccc(S(C)(=O)=O)cc3)=NN2c2ccc(S(N)(=O)=O)cc2)cc1OC (stereo unspecified)   4.41
4  CS(=O)(=O)c1ccc(C2=NN(c3ccc(C(=O)O)cc3)C(c3ccc(Cl)cc3)C2)cc1 (stereo unspecified)   2.91
5  CS(=O)(=O)c1ccc(C2=NN(c3ccc(S(N)(=O)=O)cc3)C(c3ccccc3)C2)cc1 (stereo unspecified)   3.33
6  CS(=O)(=O)c1ccc(C2=NN(c3ccc(C(=O)O)cc3)C(c3ccccc3)C2)cc1 (stereo unspecified)      5
7  CS(=O)(=O)c1ccc(C2=NN(c3ccc(S(N)(=O)=O)cc3)C(c3ccc(F)cc3)C2)cc1 (stereo unspecified)   2.91
8  CS(=O)(=O)c1ccc(C2=NN(c3ccc(C(=O)O)cc3)C(c3ccc(F)cc3)C2)cc1 (stereo unspecified)   3.42

P. CS(=O)(=O)c1ccc(C2=NN(c3ccc(S(N)(=O)=O)cc3)C(c3cccs3)C2)cc1 (stereo unspecified)
Q. COc1cccc(C2CC(c3ccc(S(C)(=O)=O)cc3)=NN2c2ccc(C(=O)O)cc2)c1 (stereo unspecified)
*Q* Quick one: lower Ratio IC50, P or Q ? # respond with the chosen item's label
*A* Q

###

- System: Rattus norvegicus
- experiment_notes: Ulcerogenic activity in rat assessed as ulcer index at 100 mg/kg
- Assay type: toxicity, organism-based
- conditions_used: in vivo
parameter_measured: UI
// no unit, no text: just the number

Here's what some known entries look like.
> print(dat)
                                   molecule  value
1  CS(=O)(=O)c1ccc(C2=NN(c3ccc(S(N)(=O)=O)cc3)C(c3ccc(F)cc3)C2)cc1 (stereo not given)    7.7
2  Cc1ccc(-c2cc(C(F)(F)F)nn2-c2ccc(S(N)(=O)=O)cc2)cc1 [CELECOXIB]   4.85

*Q* I would be grateful if you could share the reported UI for COc1ccc2c(c1)c(CC(=O)O)c(C)n2C(=O)c1ccc(Cl)cc1 [INDOMETHACIN] .
*A* 12.3

*Q* Bench note: what UI did COc1cc(C2CC(c3ccc(S(C)(=O)=O)cc3)=NN2c2ccc(C(=O)O)cc2)cc(OC)c1OC (stereo not given) show?
*A* 6.85

*Q* What does the record list as UI for COc1cc(C2CC(c3ccc(S(C)(=O)=O)cc3)=NN2c2ccc(S(N)(=O)=O)cc2)cc(OC)c1OC (stereo not given) ?
*A* 5.92

###

Below: a set of entries, each annotated with reported Activity.
- Tested on: Rattus norvegicus
- experiment_notes: Gastrointestinal toxicity in rat assessed as ulcer incidence at 100 mg/kg
- Format: organism-based
- conditions_used: in vivo
Write the value in % as a bare number.

Study these solved cases before continuing.
> print(dat)
                                   molecule          tested.on  parameter.measured  value
1  Cc1ccc(-c2cc(C(F)(F)F)nn2-c2ccc(S(N)(=O)=O)cc2)cc1 [CELECOXIB]  Rattus norvegicus            Activity    4.2
2  COc1ccc2c(c1)c(CC(=O)O)c(C)n2C(=O)c1ccc(Cl)cc1 [INDOMETHACIN]  Rattus norvegicus            Activity    8.3
3  COc1cc(C2CC(c3ccc(S(C)(=O)=O)cc3)=NN2c2ccc(C(=O)O)cc2)cc(OC)c1OC (stereo not given)  Rattus norvegicus            Activity    5.5
4  COc1cc(C2CC(c3ccc(S(C)(=O)=O)cc3)=NN2c2ccc(S(N)(=O)=O)cc2)cc(OC)c1OC (stereo not given)  Rattus norvegicus            Activity      5

// below: Activity requested for another molecule
*Q* Activity lookup needed for CS(=O)(=O)c1ccc(C2=NN(c3ccc(S(N)(=O)=O)cc3)C(c3ccc(F)cc3)C2)cc1 (stereo not given) , thanks.
*A* 6

###

- tested_on: Prostaglandin G/H synthase 2 (Homo sapiens)
- Sequence (P35354 whole entry): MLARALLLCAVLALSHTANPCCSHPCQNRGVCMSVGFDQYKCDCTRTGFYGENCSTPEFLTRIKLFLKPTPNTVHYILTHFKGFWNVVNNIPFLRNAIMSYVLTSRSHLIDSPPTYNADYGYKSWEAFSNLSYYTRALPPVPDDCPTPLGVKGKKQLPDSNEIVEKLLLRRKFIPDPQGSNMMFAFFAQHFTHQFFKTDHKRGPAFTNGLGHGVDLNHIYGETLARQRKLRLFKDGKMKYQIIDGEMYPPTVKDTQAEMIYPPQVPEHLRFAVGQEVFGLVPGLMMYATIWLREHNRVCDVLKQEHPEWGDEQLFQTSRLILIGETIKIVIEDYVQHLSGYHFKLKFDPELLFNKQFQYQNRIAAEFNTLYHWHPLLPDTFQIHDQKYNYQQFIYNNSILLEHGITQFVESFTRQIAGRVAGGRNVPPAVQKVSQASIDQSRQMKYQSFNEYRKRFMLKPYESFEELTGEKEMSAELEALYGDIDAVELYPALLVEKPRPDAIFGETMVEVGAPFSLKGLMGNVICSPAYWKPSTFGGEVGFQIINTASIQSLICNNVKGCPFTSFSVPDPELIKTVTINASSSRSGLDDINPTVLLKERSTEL
- experiment_notes: Inhibition of human recombinant COX-2 preincubated for 2 mins prior to arachidonic acid addition by enzyme immuno assay
parameter_measured: IC50 (nM)

1. COc1ccc(C2CC(c3ccc(S(C)(=O)=O)cc3)=NN2c2ccc(S(N)(=O)=O)cc2)cc1 (stereo unspecified)
2. CS(=O)(=O)c1ccc(C2=NN(c3ccc(C(=O)O)cc3)C(c3ccc(Cl)cc3)C2)cc1 (stereo unspecified)
3. CS(=O)(=O)c1ccc(C2=NN(c3ccc(C(=O)O)cc3)C(c3cccs3)C2)cc1 (stereo unspecified)
4. COc1cc(C2CC(c3ccc(S(C)(=O)=O)cc3)=NN2c2ccc(C(=O)O)cc2)cc(OC)c1OC (stereo unspecified)
*Q* Rank the molecules listed above in increasing order of IC50. // ordering of labels required in reply
*A* 3, 1, 2, 4

P. COc1cc(C2CC(c3ccc(S(C)(=O)=O)cc3)=NN2c2ccc(S(N)(=O)=O)cc2)cc(OC)c1OC (stereo unspecified)
Q. CS(=O)(=O)c1ccc(C2=NN(c3ccc(S(N)(=O)=O)cc3)C(c3ccc(Cl)cc3)C2)cc1 (stereo unspecified)
R. CS(=O)(=O)c1ccc(C2=NN(c3ccc(C(=O)O)cc3)C(c3ccccc3)C2)cc1 (stereo unspecified)
S. COc1cccc(C2CC(c3ccc(S(C)(=O)=O)cc3)=NN2c2ccc(S(N)(=O)=O)cc2)c1 (stereo unspecified)
*Q* Hey, quick one: sort these by IC50, largest value first please. In plain terms: list the labels in the order you were asked to.
*A* P, Q, S, R
(P: 4670 nM, Q: 2670 nM, S: 1760 nM, R: 980 nM)

I. COc1ccc(C2CC(c3ccc(S(C)(=O)=O)cc3)=NN2c2ccc(S(N)(=O)=O)cc2)cc1OC (stereo unspecified)
II. CS(=O)(=O)c1ccc(C2=NN(c3ccc(S(N)(=O)=O)cc3)C(c3ccc(F)cc3)C2)cc1 (stereo unspecified)
*Q* Compare reported IC50 values for I and II . Which is lower? Please indicate the selected item by its label.
*A* I
(I: 1980 nM, II: 3410 nM)

P. COc1ccc(C2CC(c3ccc(S(C)(=O)=O)cc3)=NN2c2ccc(C(=O)O)cc2)cc1 (stereo unspecified)
Q. COc1ccc(C2CC(c3ccc(S(C)(=O)=O)cc3)=NN2c2ccc(C(=O)O)cc2)cc1OC (stereo unspecified)
*Q* Lab note: record which item had the higher IC50, P or Q . Output the label that corresponds to your choice.
*A* Q
(Q: 3740 nM, P: 2170 nM)

A. CS(=O)(=O)c1ccc(C2=NN(c3ccc(S(N)(=O)=O)cc3)C(c3ccccc3)C2)cc1 (stereo unspecified)
B. CS(=O)(=O)c1ccc(C2=NN(c3ccc(C(=O)O)cc3)C(c3ccc(F)cc3)C2)cc1 (stereo unspecified)
C. COc1cccc(C2CC(c3ccc(S(C)(=O)=O)cc3)=NN2c2ccc(C(=O)O)cc2)c1 (stereo unspecified)
*Q* Descending sort on IC50 required. Give your ranking as a list of the labels in the requested order.
*A* C, B, A
